B1: VH:VL chains; a variant is named by its letters at X, in order (parent)
chain 1: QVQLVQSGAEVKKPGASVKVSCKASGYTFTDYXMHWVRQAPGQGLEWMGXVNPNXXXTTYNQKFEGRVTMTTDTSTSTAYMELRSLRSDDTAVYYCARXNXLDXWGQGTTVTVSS
chain 2: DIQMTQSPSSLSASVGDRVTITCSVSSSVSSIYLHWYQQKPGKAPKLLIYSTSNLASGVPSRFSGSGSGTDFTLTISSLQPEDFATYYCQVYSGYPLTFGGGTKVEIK

variants of: B1; test: yeast display scFab, FACS + sequencing

variant designation	non-specific binding call
YTGGDDWV	no binding
YAGGTSSD	no binding
AKAGSYGV	binds
FRGEAVVY	binds
FREKDSAD	no binding
YRRRGFGA	binds
DEGGTAAA	no binding
VTGGDSAS	no binding
YRGAASSD	binds
YRRGSALY	binds
YTGGDSVA	no binding
YRGRGVWV	binds
DGEGGDWD	binds
VKKGSSLF	binds
YTTRGDGV	no binding
VTEGDSGV	no binding
STAESDGA	no binding
YTRGADGA	no binding
DKGGSAVV	no binding
SREAASGV	no binding
ATGGGYVA	binds
VKARGSGA	binds
VRRGDAGY	no binding
SRGRGAGF	binds
SREEGFSV	no binding
YTGGNDAD	no binding
DKRKGVSD chain 1 S88F	binds
FKKGSSWD	binds
YREKGSSA	binds
YRTRGAVD	binds
YRARGAWF	binds
ARRGSDLA	no binding
YRAGASLA	binds
FGEEDFSS chain 1 W105R	binds
FRGKGSLA	binds
